Test system: Caco-2
METHOD: cell viability relative to DMSO; higher = less toxic
CONDITION NOTES: 72 h; 1000 nM
VALUE TYPE: cell viability (%)
Write down the numeric answer in % and omit the unit.

Name the reported cell viability value associated with the molecule `COc1cnc(-c2ccc(Cn3c(CC(C)(C)C(=O)O)c(SC(C)(C)C)c4cc(OC[C@@H]5Cc6ccccc6N5C(C)=O)ccc43)cc2)nc1` 97

Entry under review: `CC1=NN(c2ccc(C(=O)O)cc2)C(=O)C1=Cc1ccc(-c2cc(C)c(C)cc2[N+](=O)[O-])o1` . Reported cell viability? 94

Could you share which cell viability value was measured for `CC(C)(C)c1ccc(NC(=O)N2CCN(c3ncccc3Cl)CC2)cc1` ? 89.9

Looking for the measured cell viability of `C[C@H](NC[C@H](O)CP(=O)(O)CC1CCCCC1)c1ccc(Cl)c(Cl)c1` , can you help? 99.5

Would you kindly share the measured cell viability for NC(=O)CN1CC(c2ccccc2)CC1=O (stereo not drawn) ? 102

If you can, please state the reported cell viability value of `CC(=O)c1ccc2c(c1)[C@H](NC(=O)c1ccc(F)c(Cl)c1)[C@H](O)C(C)(C)O2` . 107

Data request, read-out cell viability, for `COc1cc(N2CCC(N3CCN(C)CC3)CC2)ccc1Nc1ncc(Cl)c(Nc2ccccc2P(C)(C)=O)n1` 94

What does the record list as cell viability for `Cc1sc2c(c1C)C(c1ccc(Cl)cc1)=N[C@@H](CC(=O)Nc1ccc(O)cc1)c1nnc(C)n1-2` ? 84.6

Entry O=C(O)C(=O)CBr [3-bromopyruvate] has what cell viability? 97.2

What does the record list as cell viability for `c1cnc(SCc2cccnc2)nc1` ? 94.8

Endpoint output: cell viability of `CC(C)n1c(=O)n(C(=O)N[C@H]2C[C@H]3CC[C@@H](C2)N3C)c2ccccc21` . Value? 102

Query (molecule): `Oc1ccc(Cl)cc1Cc1cc(Cl)ccc1O` ; field requested: cell viability 70.1

Entry under review: Cc1cc(OI)c(C(C)C)cc1-c1cc(C(C)C)c(OI)cc1C [thymol-iodide] . Reported cell viability? 97.7

// query cell viability value for entry `Cc1[nH]c(/C=C2\C(=O)Nc3ccc(F)cc32)c(C)c1C(=O)NCCN1CCCC1` 105

For the molecule shown here, `CCc1[nH]c(=O)[nH]c1C(=O)c1ccncc1` , give the reported cell viability. 99.4

What does the data say about its cell viability? Entry: `CN(C)CC/C=C1/c2ccccc2Sc2ccc(Cl)cc21` 90.5

Given CC[N+](C)(CC)CC(=O)Nc1c(C)cccc1C [N-methyllidocaine-iodide] , state its recorded cell viability. 94.8

Bench note: what cell viability did `COc1ccc(C2=N[C@@H](c3ccc(Cl)cc3)[C@@H](c3ccc(Cl)cc3)N2C(=O)N2CCNC(=O)C2)c(OC(C)C)c1` show? 97.9
